Each record here notes measured pKi.
Biological target: Cannabinoid receptor 1 (Homo sapiens, UniProt P21554)
Sequence (P21554 whole entry): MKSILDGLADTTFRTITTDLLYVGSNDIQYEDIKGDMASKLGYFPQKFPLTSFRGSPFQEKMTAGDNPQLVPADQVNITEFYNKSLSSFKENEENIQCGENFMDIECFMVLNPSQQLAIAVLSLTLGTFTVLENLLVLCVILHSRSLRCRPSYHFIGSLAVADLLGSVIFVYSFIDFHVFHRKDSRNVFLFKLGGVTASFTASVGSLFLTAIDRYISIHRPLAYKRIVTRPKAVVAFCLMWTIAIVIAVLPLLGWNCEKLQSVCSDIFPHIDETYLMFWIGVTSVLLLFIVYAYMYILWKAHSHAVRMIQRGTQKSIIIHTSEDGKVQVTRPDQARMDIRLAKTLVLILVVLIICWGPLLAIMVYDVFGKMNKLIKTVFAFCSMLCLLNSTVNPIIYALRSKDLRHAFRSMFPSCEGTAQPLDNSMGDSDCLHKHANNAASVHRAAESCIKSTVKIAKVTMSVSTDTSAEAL
Assay: Displacement of [3H]CP-55,940 from human recombinant CB1 receptor expressed in CHO cell membranes after 90 mins by scintillation counting analysis
pKi: −log10 of the molar value.
Measure Name: pKi

- Input Smiles: "CCCCn1cc(C(=O)NC2CCCCC2)c(=O)c2c(C)nn(C)c21"
  Lt Gt Eq: "="
  Reading: 5.90
- Input Smiles: "Cc1nn(C)c2c1c(=O)c(C(=O)NC1CCCCC1)cn2CCN1CCOCC1"
  Lt Gt Eq: "<"
  Reading: 5.00
- Input Smiles: "CCCCCn1cc(C(=O)NC23CC4CC(C)(CC(C)(C4)C2)C3)c(=O)c2c(C)nn(C)c21"
  Lt Gt Eq: "="
  Reading: 5.98
- Input Smiles: "Cc1nn(C)c2c1c(=O)c(C(=O)NC1CCCCC1)cn2CCCCC#N"
  Lt Gt Eq: "<"
  Reading: 5.00
- Input Smiles: "CCCCCn1cc(C(=O)NC2CCCCC2)c(=O)c2c(CC)nn(C)c21"
  Lt Gt Eq: "="
  Reading: 6.02
- Input Smiles: "CCCCCn1cc(C(=O)NC2CCCCCC2)c(=O)c2c(-c3ccccc3)nn(C)c21"
  Lt Gt Eq: "<"
  Reading: 5.00

* * *

Each record here notes measured EC50.
Target: UniProt:P34972
Sequence (P34972 whole entry): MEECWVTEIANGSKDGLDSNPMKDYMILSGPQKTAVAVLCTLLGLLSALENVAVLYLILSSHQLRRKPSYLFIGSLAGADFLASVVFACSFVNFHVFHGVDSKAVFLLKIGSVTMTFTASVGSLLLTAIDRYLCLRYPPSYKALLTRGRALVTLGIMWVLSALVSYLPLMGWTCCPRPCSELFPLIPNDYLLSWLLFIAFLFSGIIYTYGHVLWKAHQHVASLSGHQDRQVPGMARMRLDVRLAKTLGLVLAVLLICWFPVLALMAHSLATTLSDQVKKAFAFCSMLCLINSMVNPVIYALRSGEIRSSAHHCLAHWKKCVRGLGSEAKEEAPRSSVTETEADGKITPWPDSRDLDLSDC
Test: Agonist activity at human CB2 receptor expressed in CHO cells assessed as forskolin-stimulated [3H]cyclic-AMP accumulation by scintillation counting analysis
Measure Name: EC50

- Molecule: "Cc1nn(C)c2c1c(=O)c(C(=O)NC1CCCCC1)cn2Cc1ccccc1"
  Reading: "3820 nM"
- Molecule: "CCCCCn1cc(C(=O)NC(C)CCC(C)C)c(=O)c2c(C)nn(C)c21 (stereo not drawn)"
  Reading: "827 nM"
- Molecule: "CCCCCn1cc(C(=O)NC23CC4CC(CC(C4)C2)C3)c(=O)c2c(CC)nn(C)c21"
  Reading: "162 nM"

* * *

Target: Cannabinoid receptor 1 (Rattus norvegicus, UniProt P20272)
Sequence (P20272 whole entry): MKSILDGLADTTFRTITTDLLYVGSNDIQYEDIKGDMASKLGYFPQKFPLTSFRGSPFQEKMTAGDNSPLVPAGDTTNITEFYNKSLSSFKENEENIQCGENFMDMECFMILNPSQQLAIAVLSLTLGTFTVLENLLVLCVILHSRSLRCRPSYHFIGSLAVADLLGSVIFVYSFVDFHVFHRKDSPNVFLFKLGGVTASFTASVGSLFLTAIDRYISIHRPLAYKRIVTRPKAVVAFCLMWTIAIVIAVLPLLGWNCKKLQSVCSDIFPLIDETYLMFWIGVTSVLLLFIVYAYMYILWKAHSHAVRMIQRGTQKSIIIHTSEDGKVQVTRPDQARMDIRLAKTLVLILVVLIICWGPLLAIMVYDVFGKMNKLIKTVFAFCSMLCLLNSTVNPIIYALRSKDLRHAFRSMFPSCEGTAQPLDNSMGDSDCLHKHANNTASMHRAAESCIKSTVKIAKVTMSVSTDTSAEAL

- Input Smiles: "CCCCCn1cc(C(=O)NC2CCCCC2)c(=O)c2c(C(C)(C)C)nn(C)c21"
  Ki: "> 10 µM"
- Input Smiles: "CCCCCn1cc(C(=O)NC2CCCCC2)c(=O)c2c(-c3ccccc3)nn(C)c21"
  Ki: "> 10 µM"
- Input Smiles: "CCCCCn1cc(C(=O)NC2CCCCCC2)c(=O)c2c(-c3ccccc3)nn(C)c21"
  Ki: "> 10 µM"
